// provenance: patent US20220195015A1

Biological target: SARS-CoV-2 spike protein receptor binding domain (RBD) (SARS-CoV-2, UniProt P0DTC2 319-539)
Experiment: ELISA on coated RBD protein
quantity-measured: EC50 (ng/mL)
Enter your answer as a number in ng/mL; do not include the unit.

Example results:
C089 (antibody, V domains shown) VH: QVQLVESGGGVVQPGRSLRLSCAASGFTFRTYAMHWVRQAPGKGLEWVAVILSDGNNKYYADSVKGRFTISRDNSKNTLYLQMNSLRAEDTAIFYCAREQEANYYDISGYYHWGESLGYWGQGTLVTVSS VL: DIQLTQSPSFLSASVGDRVTITCRASQGISSYLAWYQQKPGKAPKLLIYGASTLQSGVPSRFSGSGSGTEFTLTISSLQPEDFASYYCQKVNSHPPGLTFGGGTKVEIK | 4.69
C518 (antibody, V domains shown) VH: EVQLVESGGGLIQPGGSLRLSCAASGITVSSNYMSWVRQAPGKGLEWVSVMYAGGSSFYADSVKGRFTISRDNSKNTLYLQMNSLRVEDTAVYYCARDLIALGVDVWGQGTTVTVSS VL: DIQLTQSPSFLSASVGDRVTITCRASQGISSYLAWYQQKPGKAPKLLIYAASTLQSGVPSRFSGSGSGTEFTLTISSLQPEDFATYYCQLLNSYPMCSFGQGTKLEIK | 1.13

Name the reported EC50 value associated with the binder C057 (antibody, V domains shown) VH: QVQLVQSGAEVKRPGASVKLSCKASGYIFTDYSIHWVRQAPGQGLEWMGWVNPNSGGGNSAQKFMDWVTMARDTSITTVYMELSRLRSDDTAVYYCARGPLFHKLVYDSWSGYHDGFDIWGQGTMVTVSS VL: QSALTQPASVSGSPGQSITISCTGTSSDVGAYKFVSWYQQHPGKAPQLIIYEVSNRPSGVSNRFSGSKSGNTASLTISGLQAEDEADYYCSSYTNASTWVFGGGTELTVL
2.31
